pKd values, listed per item
- target-entity: T1, FBF-2 RBD (FBF-2 residues 164-575) (C. elegans, UniProt Q09312 164-575)
- T1 chain: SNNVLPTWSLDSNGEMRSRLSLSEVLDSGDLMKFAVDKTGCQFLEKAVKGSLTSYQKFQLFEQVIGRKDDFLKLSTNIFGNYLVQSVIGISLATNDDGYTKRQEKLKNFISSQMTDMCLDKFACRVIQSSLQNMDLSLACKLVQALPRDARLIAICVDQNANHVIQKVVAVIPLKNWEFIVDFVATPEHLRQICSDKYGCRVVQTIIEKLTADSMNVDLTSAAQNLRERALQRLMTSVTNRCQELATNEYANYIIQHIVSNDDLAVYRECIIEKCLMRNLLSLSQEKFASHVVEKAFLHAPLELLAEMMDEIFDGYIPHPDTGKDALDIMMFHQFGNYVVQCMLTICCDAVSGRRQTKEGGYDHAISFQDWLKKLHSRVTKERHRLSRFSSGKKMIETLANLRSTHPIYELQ
- procedure-text: ITC
pKd is defined as minus the log10 of a concentration measured in mol/L.

What value of pKd has been reported for the following binder? SSSPQQRSGLRSQKLHLTYIEKNKRVRAMIPQ (peptide, UniProt P91820 67-98, looked up, The tag was cleaved with Ulp1 protease; also called LST-1^67–98; source: E. coli, purified (Ni-NTA, heparin, Superdex 75); not shown: His6-SUMO, N-terminal, cleaved) [LST-1 B peptide (LST-1 residues 67-98)]
7.30

Further cases:
Quick check: pKd of STIAYSKSQHEAPKQLLQLRSEIKPLIPLNQP (peptide, UniProt P91820 19-50, looked up, The tag was cleaved with Ulp1 protease; also called LST-1^19–50; source: E. coli, purified (Ni-NTA, HiTrap Q flow-through, Superdex 75); not shown: His6-SUMO, N-terminal, cleaved) [LST-1 A peptide (LST-1 residues 19-50)] ?
5.68

Data credit: paper PMC10641069
